Hey, just so you know, these numbers are from paper PMC5733478.

- Tested system: human A3AR (Homo sapiens)
- Construct: expressed in transfected cells
- Experimental details: LOPAC library primary screen: single concentration (10 μM) inhibition of 25 nM CA200645 binding, PHERAstar FS
Where a name gives a salt, the structure may show the parent alone.
Measure: % 25 nM CA200645 binding (%)

{"Compound": "COc1ccccc1N1CCN(CCN(C(=O)c2ccc(F)cc2)c2ccccn2)CC1.Cl.Cl [p-MPPF dihydrochloride]", "Value measured": 117.8}
{"Compound": "CCCCCCCC/C=C\\CCCCCCCC(=O)NCCc1ccc(O)c(O)c1", "Value measured": 53.5}
{"Compound": "S=c1[nH]c(-c2ccccc2)cn1-c1ccccc1", "Value measured": 70.4}
{"Compound": "COc1cc(CNC(=O)CCCCCCC(C)C)ccc1O [Dihydrocapsaicin]", "Value measured": 86.7}
{"Compound": "Nc1nc(SCc2ccc([N+](=O)[O-])cc2)c2ncn([C@@H]3O[C@H](CO)[C@@H](O)[C@H]3O)c2n1", "Value measured": 91.9}
{"Compound": "Clc1ccc2c(c1)C(N1CCNCC1)=Nc1ccccc1O2", "Value measured": 102.6}
{"Compound": "O=C(c1ccc(OCCN2CCCCC2)cc1)c1c(-c2ccc(O)cc2)sc2cc(O)ccc12 [Raloxifene hydrochloride]", "Value measured": 90.8}
{"Compound": "CC(C)(C)c1o[nH]c(=O)c1CC(N)C(=O)O (centres unmarked)", "Value measured": 96.6}

###

- Tested system: human A3AR (Homo sapiens, UniProt P0DMS8)
- Construct: expressed in transfected cells
- Sequence (P0DMS8 whole entry): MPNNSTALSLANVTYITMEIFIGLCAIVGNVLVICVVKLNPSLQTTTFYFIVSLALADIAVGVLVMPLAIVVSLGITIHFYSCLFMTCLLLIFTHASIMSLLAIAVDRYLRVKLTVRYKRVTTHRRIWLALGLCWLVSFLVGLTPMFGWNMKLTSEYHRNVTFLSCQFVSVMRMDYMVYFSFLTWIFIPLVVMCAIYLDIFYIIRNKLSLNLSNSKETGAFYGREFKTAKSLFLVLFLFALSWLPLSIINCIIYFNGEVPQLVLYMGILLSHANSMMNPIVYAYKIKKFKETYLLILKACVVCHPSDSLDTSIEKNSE
- Experimental details: LOPAC library primary screen: single concentration (10 μM) inhibition of 25 nM CA200645 binding, PHERAstar FS
Structures can show the parent of a compound that is named as a salt.
Overview of recorded % 25 nM CA200645 binding for various compounds

{"Compound": "Cl.c1ccc2c(c1)CCC[C@H]2Nc1nc2ccccc2[nH]1 [NS8593 hydrochloride]", "% 25 nM CA200645 binding [%]": 91.2}
{"Compound": "COc1cc2nc(N(C)CCCNC(=O)C3CCCO3)nc(N)c2cc1OC (centres unmarked) [Alfuzosin hydrochloride]", "% 25 nM CA200645 binding [%]": 102.3}
{"Compound": "COc1cc2nc(N3CCN(C(=O)c4ccco4)CC3)nc(N)c2cc1OC [Prazosin hydrochloride]", "% 25 nM CA200645 binding [%]": 109.3}
{"Compound": "CC(Cc1ccc(O)c(O)c1)C(C)Cc1ccc(O)c(O)c1 (centres unmarked)", "% 25 nM CA200645 binding [%]": 79.3}
{"Compound": "CCCN(CCC)CCc1ccc(O)c(O)c1 [Dipropyldopamine hydrobromide]", "% 25 nM CA200645 binding [%]": 101.8}

###

- Tested system: human A3AR (Homo sapiens, UniProt P0DMS8)
- Construct: expressed in transfected cells
- Experimental details: LOPAC library primary screen: single concentration (10 μM) inhibition of 25 nM CA200645 binding, PHERAstar FS
- Setup conditions: % of 25 nM CA200645 binding in the presence of 10 μM compound, LOPAC full screen, A3AR CHO cells
Classify by measured % Total CA200645 binding: YES if it is equal to or exceeds 50%, NO if it is smaller.

{"Molecule": "Nc1nc(Nc2ccccc2)nc2c1ncn2[C@@H]1O[C@H](CO)[C@@H](O)[C@H]1O [CV1808, 2-phenylaminoadenosine, reference compound]", "Cat": "YES"}
{"Molecule": "Nc1ccc(CCNc2ncnc3c2ncn3[C@@H]2O[C@H](CO)[C@@H](O)[C@H]2O)cc1 [APNEA, reference compound]", "Cat": "NO"}
{"Molecule": "CCCn1c(=O)c2[nH]c(C3CCCC3)nc2n(CCCOC(=O)c2ccc(S(=O)(=O)F)cc2)c1=O [FSCPX, reference compound]", "Cat": "YES"}
{"Molecule": "CCCCC#Cc1nc(NC)c2ncn([C@@H]3O[C@H](CO)[C@@H](O)[C@H]3O)c2n1 [HEMADO, reference compound]", "Cat": "NO"}
{"Molecule": "CCCOC(=O)c1c(-c2ccccc2)nc(CC)c(C(=O)SCC)c1CCC [MRS 1523, reference compound]", "Cat": "YES"}

###

The entries below come with measured % 25 nM CA200645 binding values attached.
- Tested system: human A3AR (Homo sapiens, UniProt P0DMS8)
- Construct: expressed in transfected cells
- Experimental details: LOPAC library primary screen: single concentration (10 μM) inhibition of 25 nM CA200645 binding, PHERAstar FS

{"Compound": "O=C(O)Cc1ccc(O)c(O)c1 [3,4-Dihydroxyphenylacetic acid]", "% 25 nM CA200645 binding / %": 97.0}
{"Compound": "CC(N)C(O)c1ccc(O)c(O)c1 (single isomer, unassigned; (-)) [(-)-alpha-Methylnorepinephrine]", "% 25 nM CA200645 binding / %": 100.4}
{"Compound": "N.N.N.N.N.N.N.N.N.N.N.N.N.N.[Cl-].[Cl-].[Cl-].[Cl-].[Cl-].[Cl-].[O-2].[O-2].[Ru+3].[Ru+3].[Ru+4]", "% 25 nM CA200645 binding / %": 95.4}
{"Compound": "CCN1C(=O)C=CC1=O [N-Ethylmaleimide]", "% 25 nM CA200645 binding / %": 99.8}
{"Compound": "O=C(Nc1nc2ccccc2n1CCN1CCOCC1)c1cccc([N+](=O)[O-])c1", "% 25 nM CA200645 binding / %": 61.3}
{"Compound": "CCCn1c(=O)c2[nH]c(C3CCCC3)nc2n(CCCOC(=O)c2ccc(S(=O)(=O)F)cc2)c1=O [FSCPX, reference compound]", "% 25 nM CA200645 binding / %": 57.1}
{"Compound": "C[C@H]1C[C@H]2[C@@H]3CCC4=CC(=O)C=C[C@]4(C)[C@@]3(Cl)[C@@H](O)C[C@]2(C)[C@@]1(O)C(=O)CO", "% 25 nM CA200645 binding / %": 93.7}
{"Compound": "Cc1cccc(C#Cc2ccccc2)n1.Cl", "% 25 nM CA200645 binding / %": 95.8}
{"Compound": "Cc1oncc1C(=O)Nc1ccc(C(F)(F)F)cc1 [Leflunomide]", "% 25 nM CA200645 binding / %": 100.1}
{"Compound": "CN(C)C(=O)Oc1cccc([N+](C)(C)C)c1 [Neostigmine bromide]", "% 25 nM CA200645 binding / %": 100.2}
{"Compound": "Oc1ccccc1O", "% 25 nM CA200645 binding / %": 91.0}
{"Compound": "CO/N=C(\\C(=O)N[C@@H]1C(=O)N2C(C(=O)O)=C(CSc3nc(=O)c(=O)[nH]n3C)CS[C@H]12)c1csc(N)n1 [Ceftriaxone sodium]", "% 25 nM CA200645 binding / %": 100.5}
{"Compound": "Cc1[nH]c(=O)c(C#N)cc1-c1ccc2nccn2c1.Cl [Olprinone hydrochloride]", "% 25 nM CA200645 binding / %": 100.7}
{"Compound": "C#CC(N)CCC(=O)O (centres unmarked)", "% 25 nM CA200645 binding / %": 97.6}
{"Compound": "CC(C)=CCOc1c2occc2cc2ccc(=O)oc12", "% 25 nM CA200645 binding / %": 47.6}
{"Compound": "Cl.NNC(N)=O [Semicarbazide hydrochloride]", "% 25 nM CA200645 binding / %": 98.7}
{"Compound": "CNCC[C@H](Oc1ccc(C(F)(F)F)cc1)c1ccccc1.Cl [S-(+)-Fluoxetine hydrochloride]", "% 25 nM CA200645 binding / %": 102.0}

###

- Tested system: human A3AR (Homo sapiens)
- Construct: expressed in transfected cells
- Experimental details: LOPAC library primary screen: single concentration (10 μM) inhibition of 25 nM CA200645 binding, PHERAstar FS
Counter-ions that a name gives are not always drawn.

{"Molecule": "CC(C)c1c(C(=O)Nc2ccccc2)c(-c2ccccc2)c(-c2ccc(F)cc2)n1CC[C@@H](O)C[C@@H](O)CC(=O)O [Atorvastatin calcium salt trihydrate]", "% 25 nM CA200645 binding": "97.7 ± 2.2%"}
{"Molecule": "N[C@H](C(=O)O)[C@H](Cc1ccccc1)C(=O)O [L-Beta-threo-benzyl-aspartate]", "% 25 nM CA200645 binding": "95.9 ± 9.2%"}
{"Molecule": "CC(CN1c2ccccc2Sc2ccccc21)N(C)C (centres unmarked) [Promethazine hydrochloride]", "% 25 nM CA200645 binding": "96.7 ± 11.4%"}
{"Molecule": "NCC(CP(=O)(O)O)c1ccc(Cl)cc1 (centres unmarked)", "% 25 nM CA200645 binding": "107.2 ± 18.9%"}
{"Molecule": "Cl.Cn1ccc2cc(NC(=O)Nc3cccnc3)ccc21 [SB 200646 hydrochloride]", "% 25 nM CA200645 binding": "81.7 ± 19.9%"}
{"Molecule": "Nc1cc(N2CCCCC2)nc(N)[n+]1[O-]", "% 25 nM CA200645 binding": "96.7 ± 6.2%"}
{"Molecule": "COc1ccc(C2(O)OC(=O)C(c3ccc4c(c3)OCO4)=C2Cc2cc(OC)c(OC)c(OC)c2)cc1 (centres unmarked)", "% 25 nM CA200645 binding": "71.9 ± 8.4%"}
{"Molecule": "COc1ccccc1N1CCN(CCN(C(=O)C2CCCCC2)c2ccccn2)CC1.O=C(O)/C=C\\C(=O)O [WAY-100635 maleate]", "% 25 nM CA200645 binding": "90.8 ± 17.8%"}
